B1: EFHC1 (parent)
chain: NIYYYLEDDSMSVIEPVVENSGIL

- Variants of: B1
- ASSAY REMARKS: protein stability index of a GFP-peptide fusion (GPS, HEK-293T) (PSI 1-6); higher = more stable;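 note: lentivirally expressed fusions sorted by FACS into six bins by GFP to DsRed ratio, PSI derived from sequencing read proportions per bin multiplied by bin number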
- CONDITIONS USED: c terminus: a fixed tail appended
Exercise: state measured protein stability index for each of the variants provided.
Give the figure only, with no unit attached.

Input NIYYYLEDDQMSVIEPVVENSGIL . Output protein stability index: 2.05

What the record says about NIYYYLEDDSMDVIEPVVENSGIL : protein stability index is 3.05

Value of measured protein stability index for the entry NIYYYLEDDAMSVIEPVVENSGIL : 2.02

protein stability index reported for this variant NIYYYLEDDSMSVIEPVVVNSGIL : 2

Lab note: NIYYYLEDDWMSVIEPVVENSGIL gave protein stability index of 2.02

The reported value for NIYYYLEDDSMSVIEPVVDNSGIL in terms of protein stability index is 2.01
